- method: in vivo
- run.conditions: both, Swiss Albino, mouse
readout.type: MTD at 14 days

compound: Cc1ccc(C(=O)Nc2ccc(CN3CCN(C)CC3)c(C(F)(F)F)c2)cc1C#Cc1cnc2[nH]c(=O)ccc2c1 [NRC21T]
measurement: > 2000 mg/kg

====

Listed here: items and their measured GI50.
- target.entity: Baf3/T315I (Homo sapiens, UniProt P00519, T315I, cells depend on it)
- method: MTT cell proliferation assay, Baf3/T315I
- Format: cell-based
- run.conditions: Table 1B; T315I; read-out: IC50 values obtained from MTT assay
readout.type: GI50 (nM)

compound: Cc1ccc(C(=O)Nc2ccc(CN3CCN(C)CC3)c(C(F)(F)F)c2)cc1/C=C/c1cnc2[nH]c(=O)ccc2c1 [NRC-20T]
unit.symbol: nM
op: =
measurement: 155
--
compound: Cc1ccc(NC(=O)c2cc(C(F)(F)F)cc(C(F)(F)F)c2)cc1C#Cc1cnc2[nH]c(=O)ccc2c1 [NRC-15T]
unit.symbol: nM
op: =
measurement: 7690
--
compound: Cc1ccc(NC(=O)c2ccc(CN3CCN(C)CC3)c(C(F)(F)F)c2)cc1C#Cc1cnc2[nH]c(=O)ccc2c1 [NRC-19T]
unit.symbol: nM
op: =
measurement: 334
--
compound: Cc1ccc(C(=O)Nc2cc(CN3CCN(C)CC3)cc(C(F)(F)F)c2)cc1C#Cc1cnc2[nH]c(=O)ccc2c1 [NRC-17T]
unit.symbol: nM
op: =
measurement: 712
--
compound: Cc1ccc(C(=O)Nc2cc(C(F)(F)F)cc(C(F)(F)F)c2)cc1C#Cc1cnc2[nH]c(=O)ccc2c1 [NRC-16T]
unit.symbol: nM
op: >
measurement: 10000
--
compound: Cc1cn(-c2cc(NC(=O)c3ccc(C)c(C#Cc4cnc5[nH]c(=O)ccc5c4)c3)cc(C(F)(F)F)c2)cn1 [NRC-18T]
unit.symbol: nM
op: =
measurement: 228
--
compound: Cc1ccc(NC(=O)c2cccc(C(F)(F)F)c2)cc1C#Cc1cnc2[nH]c(=O)ccc2c1 [NRC-13T]
unit.symbol: nM
op: =
measurement: 1510
--
compound: Cc1ccc(C(=O)Nc2cccc(C(F)(F)F)c2)cc1C#Cc1cnc2[nH]c(=O)ccc2c1 [NRC-14T]
unit.symbol: nM
op: =
measurement: 1040
